Data provenance: ChEMBL document CHEMBL5500347

# MIC annotations
system: Escherichia coli; experiment: Antibacterial activity against Escherichia coli CCUGT incubated for 18 to 24 hrs by CLSI based microdilution broth method; type: functional; conditions: Escherichia coli, CCUGT; time 18-24 hrs; read-out: MIC
Answer format: numeric, µg/mL implied, no suffix.

Problem: Field request: MIC | item: N=C(N)NCCCCCCN(CCCCCCCCNC(=N)NCC1CC1)C(=O)N(CCCCCCCCNC(=N)NCC1CC1)CCCCCCNC(=N)N.O=C(O)C(F)(F)F
Result: 2

Further cases:
Problem: Which MIC is reported for this molecule? CSCCNC(=N)NCCCCCCCCN(CCCCCCCCNC(=N)N)C(=O)N(CCCCCCCCNC(=N)N)CCCCCCCCNC(=N)NCCSC.O=C(O)C(F)(F)F
Result: 2

Problem: Reported MIC, molecule N=C(NCCCCCCCCN(CCCCCCCCNC(=N)NCC1CC1)C(=O)N(CCCCCCNC(=N)NCC1CC1)CCCCCCNC(=N)NCC1CC1)NCC1CC1 : ____
Result: 4

Problem: Endpoint output: MIC of N=C(N)NCCCCCCCCN(CCCCCCCCNC(=N)NC1CCCC1)C(=O)N(CCCCCCCCNC(=N)N)CCCCCCCCNC(=N)NC1CCCC1.O=C(O)C(F)(F)F . Value?
Result: 1

Problem: Param item = CCCCNC(=N)NCCCCCCCCN(CCCCCCCCNC(=N)N)C(=O)N(CCCCCCCCNC(=N)N)CCCCCCCCNC(=N)NCCCC.O=C(O)C(F)(F)F ; retrieve measured MIC.
Result: 2

Problem: Give its MIC value. Item: O=C(O)C(F)(F)F.[N-]=[N+]=NCCCCCCCCN(CCCCCCCCNC(=N)NCC1CC1)C(=O)N(CCCCCCCCN=[N+]=[N-])CCCCCCCCNC(=N)NCC1CC1
Result: 16

---

test system: Klebsiella pneumoniae; assay: Antibacterial activity against Klebsiella pneumoniae ATCC 13833 incubated for 18 to 24 hrs by CLSI based microdilution broth method; type: functional; details: Klebsiella pneumoniae, ATCC 13833; time 18-24 hrs; read-out: MIC
valueType: MIC (µg/mL)
API: value field is a number in µg/mL; no unit string.

Known MIC results, listed for orientation:
Problem: Reported MIC, compound CC(C)NC(=N)NCCCCCCCCN(CCCCCCCCNC(=N)N)C(=O)N(CCCCCCCCNC(=N)N)CCCCCCCCNC(=N)NC(C)C.O=C(O)C(F)(F)F : ____
Result: 1

Problem: Sample N=C(N)NCCCCCCCCN(CCCCCCCCNC(=N)NCC1CC1)C(=O)N(CCCCCCCCNC(=N)NCC1CC1)CCCCCCNC(=N)N.O=C(O)C(F)(F)F — what was its MIC?
Result: 1

Further cases:
Problem: For CCNC(=N)NCCCCCCN(CCCCCCNC(=N)NCC1CC1)C(=O)N(CCCCCCNC(=N)NCC)CCCCCCNC(=N)NCC1CC1 , what is its reported MIC?
Result: 16

---

system: Escherichia coli; assay: Antibacterial activity against Escherichia coli CCUGT incubated for 18 to 24 hrs by CLSI based microdilution broth method; type: functional; conditions: Escherichia coli, CCUGT; time 18-24 hrs; read-out: MIC
The molecules listed here are annotated with their MIC.
Response body: numeric value in µg/mL, unit text excluded.

// known answers, use as guide
Problem: Need MIC, item CC(C)CNC(=N)NCCCCCCCCN(CCCCCCCCNC(=N)N)C(=O)N(CCCCCCCCNC(=N)N)CCCCCCCCNC(=N)NCC(C)C.O=C(O)C(F)(F)F
Result: 4

Problem: Look up MIC: CCNC(=N)NCCCCCCN(CCCCCCNC(=N)NCC1CC1)C(=O)N(CCCCCCNC(=N)NCC)CCCCCCNC(=N)NCC1CC1
Result: 8

Problem: Recorded MIC for N=C(N)NCCCCCCCCN(CCCCCCCCNC(=N)NCCC12CC3CC(CC(C3)C1)C2)C(=O)N(CCCCCCCCNC(=N)N)CCCCCCCCNC(=N)NCCC12CC3CC(CC(C3)C1)C2.O=C(O)C(F)(F)F , please?
Result: 32

Problem: What MIC value was documented for this molecule, N=C(N)NCCCCCCCCN(CCCCCCCCNC(=N)NCC1CC1)C(=O)N(CCCCCCCCNC(=N)N)CCCCCCNC(=N)NCC1CC1.O=C(O)C(F)(F)F ?
Result: 8

Please find the next molecule below.
Problem: Name the recorded MIC for CNC(=O)NCCCCCCCCN(CCCCCCCCNC(=N)NCC1CC1)C(=O)N(CCCCCCCCNC(=N)NCC1CC1)CCCCCCCCNC(=O)NC.O=C(O)C(F)(F)F .
Result: 16

---

tested on: Escherichia coli; assay: Antibacterial activity against Escherichia coli CCUGT incubated for 18 to 24 hrs by CLSI based microdilution broth method; type: functional; conditions: Escherichia coli, CCUGT; time 18-24 hrs; read-out: MIC
compounds and their reported MIC
Kindly answer with a numeric value in µg/mL, unit omitted.

Consider the worked cases shown below.
Problem: Could you tell me which MIC is on file for N=C(N)NCCCCCCN(CCCCCCNC(=N)NCC1CC1)C(=O)N(CCCCCCNC(=N)N)CCCCCCNC(=N)NCC1CC1 ?
Result: 16

Problem: Given N=C(N)NCCCCCCCN(CCCCCCCNC(=N)NCC1CC1)C(=O)N(CCCCCCNC(=N)N)CCCCCCNC(=N)NCC1CC1.O=C(O)C(F)(F)F , state its recorded MIC.
Result: 16

Problem: // MIC lookup, key: N=C(N)NCCCCCCCCN(CCCCCCCCNC(=N)NCC1CC1)C(=O)N(CCCCCCCCNC(=N)NCC1CC1)CCCCCCNC(=N)N.O=C(O)C(F)(F)F
Result: 1

Problem: Look at this compound and give its reported MIC. CC(C)=CCC/C(C)=C/CNC(=N)NCCCCCCCCN(CCCCCCCCNC(=N)N)C(=O)N(CCCCCCCCNC(=N)N)CCCCCCCCNC(=N)NC/C=C(\C)CCC=C(C)C.O=C(O)C(F)(F)F
Result: 2

---
Problem: Given the entry COCCNC(=N)NCCCCCCCCN(CCCCCCCCNC(=N)N)C(=O)N(CCCCCCCCNC(=N)N)CCCCCCCCNC(=N)NCCOC.O=C(O)C(F)(F)F , report its measured MIC.
Result: 1

Problem: State the recorded MIC for this entry: N=C(N)NCCCCCCCCN(CCCCCCCCNC(=N)NCCN1CCOCC1)C(=O)N(CCCCCCCCNC(=N)N)CCCCCCCCNC(=N)NCCN1CCOCC1.O=C(O)C(F)(F)F
Result: 4

Problem: Fill blank: measured MIC of the compound C/C=C/CNC(=N)NCCCCCCCCNC(N)=O.O=C(O)C(F)(F)F is ____.
Result: 128

Problem: I have this compound here, CCCNC(=N)NCCCCCCCCN(CCCCCCCCNC(=N)N)C(=O)N(CCCCCCCCNC(=N)N)CCCCCCCCNC(=N)NCCC.O=C(O)C(F)(F)F , and I need its recorded MIC.
Result: 0.5

---

tested on: Streptococcus pyogenes; assay: Antibacterial activity against Streptococcus pyogenes ATCC 12344 incubated for 18 to 24 hrs by CLSI based microdilution broth method; format: functional; conditions: time 18-24 hrs
valueType: MIC (µg/mL)
Write the answer as a number in µg/mL, unit excluded.

Worked examples, 3 molecules total:
Problem: Consider the molecule shown here: CN[C@H](CC(C)C)C(=O)N[C@H]1C(=O)N[C@@H](CC(N)=O)C(=O)N[C@H]2C(=O)N[C@H]3C(=O)N[C@H](C(=O)N[C@H](C(=O)O)c4cc(O)cc(O)c4-c4cc3ccc4O)[C@H](O)c3ccc(c(Cl)c3)Oc3cc2cc(c3O[C@@H]2O[C@H](CO)[C@@H](O)[C@H](O)[C@H]2O[C@H]2C[C@](C)(N)[C@H](O)[C@H](C)O2)Oc2ccc(cc2Cl)[C@H]1O What is its recorded MIC?
Result: 1

Problem: Would you mind telling me what MIC value was observed for N=C(N)NCCCCCCCCN(CCCCCCCCNC(=N)NCCN1CCOCC1)C(=O)N(CCCCCCCCNC(=N)N)CCCCCCCCNC(=N)NCCN1CCOCC1.O=C(O)C(F)(F)F ?
Result: 1

Problem: Which MIC is listed for CC(C)NC(=N)NCCCCCCCCNC(N)=O.O=C(O)C(F)(F)F ?
Result: 64

---
Problem: // MIC lookup, key: N=C(N)NCCCCCCCCCN(CCCCCCCCCNC(=N)NCC1CC1)C(=O)N(CCCCCCCCCNC(=N)N)CCCCCCCCCNC(=N)NCC1CC1.O=C(O)C(F)(F)F
Result: 2

---

system: Streptococcus pyogenes; experiment: Antibacterial activity against Streptococcus pyogenes ATCC 12344 incubated for 18 to 24 hrs by CLSI based microdilution broth method; type: functional; conditions: time 18-24 hrs
valueType: MIC (µg/mL)
Just the number in µg/mL, nothing appended.

Problem: I would be grateful if you could share the reported MIC for C/C=C/CNC(=N)NCCCCCCCCN(CCCCCCCCNC(=N)N)C(=O)N(CCCCCCCCNC(=N)N)CCCCCCCCNC(=N)NC/C=C/C.O=C(O)C(F)(F)F .
Result: 2

Problem: So what does the record say about MIC for CCCNC(=N)NCCCCCCCCN(CCCCCCCCNC(=N)N)C(=O)N(CCCCCCCCNC(=N)N)CCCCCCCCNC(=N)NCCC.O=C(O)C(F)(F)F ?
Result: 1

Problem: Fill blank: measured MIC of the compound COCCNC(=N)NCCCCCCCCN(CCCCCCCCNC(=N)N)C(=O)N(CCCCCCCCNC(=N)N)CCCCCCCCNC(=N)NCCOC.O=C(O)C(F)(F)F is ____.
Result: 0.5

Problem: Given the entry CSCCNC(=N)NCCCCCCCCN(CCCCCCCCNC(=N)N)C(=O)N(CCCCCCCCNC(=N)N)CCCCCCCCNC(=N)NCCSC.O=C(O)C(F)(F)F , report its measured MIC.
Result: 1

Problem: Look up MIC: N=C(N)NCCCCCCCCN(CCCCCCCCNC(=N)NCCC12CC3CC(CC(C3)C1)C2)C(=O)N(CCCCCCCCNC(=N)N)CCCCCCCCNC(=N)NCCC12CC3CC(CC(C3)C1)C2.O=C(O)C(F)(F)F
Result: 16

// switching to the query compound
Problem: Report MIC for CCCCNC(=N)NCCCCCCCCN(CCCCCCCCNC(=N)N)C(=O)N(CCCCCCCCNC(=N)N)CCCCCCCCNC(=N)NCCCC.O=C(O)C(F)(F)F please.
Result: 2
